molecular target: HLA-A*26:01; test: IEDB peptide-MHC binding, purified MHC/direct/fluorescence; filed as Kd, often an IC50 or EC50 that approximates it; bounds were set here for any values at or beyond the usual limits of such assays; conditions: source organism: Cryptosporidium parvum Iowa II
pKd: −log10 of the molar value.
measured-parameter: pKd

# input Need pKd, item LPWFLDTTI
# output ≤ 4.70

----------
biological target: HLA-A*02:16; experiment: IEDB peptide-MHC binding, purified MHC/direct/fluorescence; filed as Kd, often an IC50 or EC50 that approximates it; bounds were set here for any values at or beyond the usual limits of such assays; conditions: source organism: Cryptosporidium parvum Iowa II
measured-parameter: Kd

# input Dear colleague, I am looking for the recorded Kd of the following sequence: LPWFLDTTI
# output ≥ 20 µM

----------
target: HLA-B*45:06; experiment: IEDB peptide-MHC binding, purified MHC/competitive/fluorescence; filed as Kd, often an IC50 or EC50 that approximates it; bounds were set here for any values at or beyond the usual limits of such assays; details: source organism: Escherichia coli F11
measured-parameter: Kd

# input For MTYSHHACR , what is its reported Kd?
# output ≥ 5 µM

----------
biological target: HLA-A*02:19; test: IEDB peptide-MHC binding, purified MHC/direct/fluorescence; filed as Kd, often an IC50 or EC50 that approximates it; bounds were set here for any values at or beyond the usual limits of such assays; conditions: source organism: Coxiella burnetii Q321
pKd: −log10 of the molar value.
measured-parameter: pKd

# input May I ask what pKd has been recorded for DGAEGINPY ?
# output ≤ 4.70

----------
biological target: HLA-B*44:02; experiment: IEDB peptide-MHC binding, purified MHC/competitive/radioactivity; filed as Kd, often an IC50 or EC50 that approximates it; bounds were set here for any values at or beyond the usual limits of such assays; settings: source organism: Mammarenavirus lassaense
measured-parameter: Kd

# input State the recorded Kd for this entry: SDLDMLTQS
# output ≥ 42.2 µM

----------
molecular target: HLA-B*27:03; assay: IEDB peptide-MHC binding, purified MHC/direct/fluorescence; filed as Kd, often an IC50 or EC50 that approximates it; bounds were set here for any values at or beyond the usual limits of such assays; conditions: source organism: Cryptosporidium parvum Iowa II
pKd: −log10 of the molar value.
measured-parameter: pKd

# input Which pKd value is on record for LPWFLDTTI ?
# output ≤ 4.70

----------
biological target: HLA-B*18:01; assay: IEDB peptide-MHC binding, purified MHC/competitive/radioactivity; filed as Kd, often an IC50 or EC50 that approximates it; bounds were set here for any values at or beyond the usual limits of such assays; conditions: source organism: Mammarenavirus lassaense
measured-parameter: Kd

# input GET /values?readout=Kd&item= SDLDMLTQS
# output ≥ 77.5 µM

----------
target: HLA-B*27:05; experiment: IEDB peptide-MHC binding, purified MHC/direct/fluorescence; filed as Kd, often an IC50 or EC50 that approximates it; bounds were set here for any values at or beyond the usual limits of such assays; details: source organism: Brucella abortus
measured-parameter: Kd

# input Notebook: pull reported Kd for HLA-B*27:05, entry FSDVSHWWQ
# output ≥ 20 µM

# input Continue with GYSFSIPGY
# output ≥ 20 µM

----------
target: HLA-A*31:01; assay: IEDB peptide-MHC binding, purified MHC/competitive/radioactivity; filed as Kd, often an IC50 or EC50 that approximates it; bounds were set here for any values at or beyond the usual limits of such assays; conditions: source organism: Lassa virus Josiah
measured-parameter: Kd (nM)
// return numeric value only (unit: nM, not printed)

# input Test system HLA-A*31:01; read-out Kd; what value for SAVIDALPR ?
# output 2120

# input # iterate: FLWTQSLRR
# output 2050

# input Param item: RASLIPDATH
# output 1980

----------
biological target: HLA-A*03:01; experiment: IEDB peptide-MHC binding, purified MHC/direct/fluorescence; filed as Kd, often an IC50 or EC50 that approximates it; bounds were set here for any values at or beyond the usual limits of such assays; details: source organism: Influenza A virus (A/Puerto Rico/8/34/Mount Sinai(H1N1))
measured-parameter: Kd (nM)
Expressed in nM, but write only the number.

# input Kindly state the measured Kd obtained for KFFPSSSYR with HLA-A*03:01.
# output 184

----------
biological target: HLA-B*08:01; experiment: IEDB peptide-MHC binding, purified MHC/direct/fluorescence; filed as Kd, often an IC50 or EC50 that approximates it; bounds were set here for any values at or beyond the usual limits of such assays; details: source organism: Bacillus anthracis
pKd: −log10 of the molar value.
measured-parameter: pKd

# input # lookup: pKd of FIFGKMGAG
# output ≤ 4.70

----------
biological target: HLA-A*26:01; assay: IEDB peptide-MHC binding, purified MHC/direct/fluorescence; filed as Kd, often an IC50 or EC50 that approximates it; bounds were set here for any values at or beyond the usual limits of such assays; conditions: source organism: Cryptosporidium parvum
pKd: −log10 of the molar value.
measured-parameter: pKd

# input Test system HLA-A*26:01; read-out pKd; what value for WLPWIPQLI ?
# output ≤ 4.70

----------
molecular target: HLA-A*02:19; test: IEDB peptide-MHC binding, purified MHC/competitive/fluorescence; filed as Kd, often an IC50 or EC50 that approximates it; bounds were set here for any values at or beyond the usual limits of such assays; conditions: source organism: Burkholderia mallei NCTC 10229
pKd: −log10 of the molar value.
measured-parameter: pKd

# input // lookup pKd for RTFGQPLFF
# output ≤ 4.70

----------
Please respond with reported pKd for every item in the list.
target: HLA-B*83:01; assay: IEDB peptide-MHC binding, purified MHC/competitive/fluorescence; filed as Kd, often an IC50 or EC50 that approximates it; bounds were set here for any values at or beyond the usual limits of such assays; conditions: source organism: human gammaherpesvirus 4
pKd: −log10 of the molar value.

# input Given RRLHRLLLM , state its recorded pKd.
# output ≤ 5.30

# input Check SQAAFGLPI too.
# output ≤ 5.30

----------
target: HLA-A*68:01; experiment: IEDB peptide-MHC binding, purified MHC/competitive/radioactivity; filed as Kd, often an IC50 or EC50 that approximates it; bounds were set here for any values at or beyond the usual limits of such assays; details: source organism: Mammarenavirus guanaritoense
measured-parameter: Kd

# input Please give the measured Kd for this sequence: KCSDHYLCLR
# output ≥ 70.1 µM

----------
molecular target: HLA-A*11:01; assay: IEDB peptide-MHC binding, purified MHC/direct/fluorescence; filed as Kd, often an IC50 or EC50 that approximates it; bounds were set here for any values at or beyond the usual limits of such assays; settings: source organism: SARS-CoV1
measured-parameter: Kd (nM)
Response body: numeric value in nM, unit text excluded.

# input I have this sequence here, TQDLFLPFY , and I need its recorded Kd.
# output 424

----------
Please respond with reported pKd for every item in the list.
molecular target: HLA-B*07:02; assay: IEDB peptide-MHC binding, purified MHC/competitive/radioactivity; filed as Kd, often an IC50 or EC50 that approximates it; bounds were set here for any values at or beyond the usual limits of such assays; settings: source organism: SARS coronavirus Tor2
// pKd is dimensionless: -log10 of concentration (M)

# input Need pKd, item FPNITNLCPF
# output 7.25

# input Repeat with FPPTSFGPLV
# output 5.68

# input Record: APSASAFFGM
# output 6.91

# input What do you get for RPLMESELVI ?
# output 6.18

# input Then KPLLAPHHVV ?
# output 6.75

----------
molecular target: HLA-B*15:42; test: IEDB peptide-MHC binding, purified MHC/competitive/fluorescence; filed as Kd, often an IC50 or EC50 that approximates it; bounds were set here for any values at or beyond the usual limits of such assays; settings: source organism: Crocodilepox virus
pKd: −log10 of the molar value.
measured-parameter: pKd

# input Give the measured pKd of RVRSMANVY .
# output ≤ 5.30

----------
target: HLA-B*57:01; assay: IEDB peptide-MHC binding, purified MHC/direct/fluorescence; filed as Kd, often an IC50 or EC50 that approximates it; bounds were set here for any values at or beyond the usual limits of such assays; conditions: source organism: Salmonella enterica subsp. enterica serovar Typhimurium
measured-parameter: Kd

# input Would you mind telling me what Kd value was observed for QVNDVLHSV ?
# output ≥ 20 µM

----------
target: HLA-B*44:02; test: IEDB peptide-MHC binding, purified MHC/direct/fluorescence; filed as Kd, often an IC50 or EC50 that approximates it; bounds were set here for any values at or beyond the usual limits of such assays; details: source organism: Salmonella enterica subsp. enterica serovar Typhi
measured-parameter: Kd

# input Please look up its Kd: LPLIVDTAA
# output ≥ 20 µM

----------
molecular target: HLA-B*57:01; assay: IEDB peptide-MHC binding, purified MHC/direct/fluorescence; filed as Kd, often an IC50 or EC50 that approximates it; bounds were set here for any values at or beyond the usual limits of such assays; conditions: source organism: Mycobacterium tuberculosis str. Haarlem
measured-parameter: Kd (µM)
Give the value, in units of µM, as a plain number.

# input Entry under review: GAITSAHFM . Reported Kd?
# output 0.687

Every entry's value here was drawn from the Immune Epitope Database (IEDB).
